The origin of these recorded values is PubChem BioAssay AID1445.

target: Aminopeptidase N (Plasmodium falciparum (isolate 3D7)); assay: malaria alanyl aminopeptidase activity blockers – biochemical, fluorogenic H-Leu-NHMec substrate, 1536-well (AID 1445); settings: recombinant M1AAP, H-Leu-NHMec fluorogenic kinetic assay; at 30 µM, hits give high values unless noted;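 also: plate controls were DMSO full reaction for no effect and no enzyme background for full effect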
Out of some 220,000 compounds screened, about 910 (0.41%) were called active. Shown is part of a subset that was picked to be rich in actives. Measured potencies and affinities stand elsewhere.
Think of 6% as a floor: if inhibition stands on it or above, it is criterion met; beneath it, criterion not met.

COc1ccc(C2CC(c3ccccc3)=NN2c2ccc(S(N)(=O)=O)cc2)cc1 (stereo not given)    criterion met

Please find the next molecule below.
IN: Could you please find out whether `CCOc1cc(C2C3=C(CC(C)(C)CC3=O)OC3=C2C(=O)CC(C)(C)C3)cc([N+](=O)[O-])c1O` has inhibition that meets 6% or exceeds it?
OUT: criterion met

* * *

# inhibition annotations
biological target: Aminopeptidase N (Plasmodium falciparum (isolate 3D7)); experiment: malaria alanyl aminopeptidase activity blockers – biochemical, fluorogenic H-Leu-NHMec substrate, 1536-well (AID 1445); settings: recombinant M1AAP, H-Leu-NHMec fluorogenic kinetic assay; at 30 µM, hits give high values unless noted;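 also: plate controls were DMSO full reaction for no effect and no enzyme background for full effect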
Screen size: about 220,000 compounds; about 910 (0.41%) were called active. This is one part of a sample in which actives are shown more often than they occur. Entries with a potency or affinity are not part of this list.
Give just the numeric value; % need not be written.

Known results for compounds:
C/C(=N\NC(=O)COc1ccc(C(C)(C)C)cc1)c1ccc(OC(F)F)cc1    6.66
COC(=O)c1ccc(COc2ccccc2/C=N/NS(=O)(=O)c2ccccc2)cc1    3.52
O=C(N/N=C/c1ccc(-c2cccc([N+](=O)[O-])c2)o1)c1ccccc1O    -18.1
CCn1c(COc2cccc(C)c2C)nnc1SCC(=O)Nc1cc(C)on1    7.39
O=C1OCC2=C1C(c1ccccc1)CC(=O)N2c1ccccc1 (stereo not given)    5.38

IN: Need inhibition, item `CC(C)c1nc(CNC(=O)CCc2nnc(-c3ccsc3)o2)cs1`
OUT: -9.81

IN: Entry `Cc1ccc(N=Nc2c(C)[nH]n(-c3ccccc3)c2=O)c(C)c1` has what inhibition?
OUT: 3.7

IN: Need inhibition, item `CCN1C(=S)SC(=O)C1=C1C=C(C)N(Cc2ccco2)C(C)=C1`
OUT: 12.6

IN: Using the record for `O=C(CSc1ccc2nnc(-c3ccncc3)n2n1)Nc1ccc2c(c1)OCO2` , report its inhibition.
OUT: 5.11

IN: Value lookup for inhibition; key = OCCC1CN(Cc2nc(-c3ccccc3)cs2)CCN1CCc1ccccc1 (stereo not given)
OUT: 7.68

IN: If you can, please state the reported inhibition value of `CCN=C1S/C(=C\c2cc(Br)ccc2OCC(=O)OCC)C(=O)N1CC` .
OUT: 3.81

IN: Could you share which inhibition value was measured for COc1ccc2cc(C(=O)C3CCCN(C(=O)CSc4nnc(C)o4)C3)ccc2c1 (stereo not given) ?
OUT: 12.3

IN: Recorded inhibition of `COc1ccc(NS(=O)(=O)c2cc(NC(=O)c3ccccc3F)ccc2N2CCCC2)cc1` , please.
OUT: 3.17

IN: State the recorded inhibition for this entry: `CN(CC(=O)Nc1ccc(N2CCOCC2)cc1)C(=O)COc1ccccc1F`
OUT: 0.51

IN: Name the reported inhibition value associated with the compound `CCN1C(=S)SC(=O)C1=C1C=C(C)N(CCO)C(C)=C1`
OUT: 26.2
